system: KB tumour cell line; assay: Cytotoxicity vis-à-vis the KB tumour cell line; type: cell-based; details: Homo sapiens
Record form. Attribute: IC50. Fill in for each entry.
Answers are plain numbers, in µM.

sampleSmiles: COc1ccc(SCc2c(O)c(O)c(C(C)C)c3c2C(=O)C(C2=C(C)C(=O)c4c(c(CSc5ccc(OC)cc5)c(O)c(O)c4C(C)C)C2=O)=C(C)C3=O)cc1
unitsLabel: µM
IC50: 6.5
//
sampleSmiles: CC1=C(C2=C(C)C(=O)c3c(c(CSc4ccccc4)c(O)c(O)c3C(C)C)C2=O)C(=O)c2c(CSc3ccccc3)c(O)c(O)c(C(C)C)c2C1=O
unitsLabel: µM
IC50: 4
//
sampleSmiles: CC1=C(C2=C(C)C(=O)c3c(c(CSc4ccc(C)cc4)c(O)c(O)c3C(C)C)C2=O)C(=O)c2c(CSc3ccc(C)cc3)c(O)c(O)c(C(C)C)c2C1=O
unitsLabel: µM
IC50: 6.5

Report IC50 for every entry below.
1. CC1=C(C2=C(C)C(=O)c3c(c(O)c(O)c(O)c3C(C)C)C2=O)C(=O)c2c(O)c(O)c(O)c(C(C)C)c2C1=O
2. CC1=C(C2=C(C)C(=O)c3c(c(CSc4ccc(Cl)cc4)c(O)c(O)c3C(C)C)C2=O)C(=O)c2c(CSc3ccc(Cl)cc3)c(O)c(O)c(C(C)C)c2C1=O

Reply:
1. 1
2. 3

Working through the 2 compounds below one at a time, give IC50 for each.
1. CC1=C(C2=C(C)C(=O)c3c(c(CO)c(O)c(O)c3C(C)C)C2=O)C(=O)c2c(CO)c(O)c(O)c(C(C)C)c2C1=O
2. CC1=C(C2=C(C)C(=O)c3c(c(CSc4c(F)c(F)cc(F)c4F)c(O)c(O)c3C(C)C)C2=O)C(=O)c2c(CSc3c(F)c(F)cc(F)c3F)c(O)c(O)c(C(C)C)c2C1=O

Reply:
1. 1
2. 8.5
